# LC50/EC50 listing for each entry below
Test system: larval settlement of the barnacle Balanus amphitrite
Experiment: Bioassay for antifouling activity against larval settlement (cyprids, 24-well plate, 24 h)
Conditions: Table 2; LC50 used is the highest concentration causing <50% death of larvae
measured metric: LC50/EC50

compound: COc1ccc(-c2coc3c(OC)c(O)ccc3c2=O)cc1 [Sample F-2, 7-hydroxy-8,4′-dimethoxyisoflavone]
result: >7.50

compound: O=c1c(-c2ccc(O)cc2)coc2cc(O)cc(O)c12 [Sample F-12, 4′,5,7-trihydroxy-isoflavone]
result: >16.7

compound: COc1cc2oc(-c3ccc(O)cc3)c(OC)c(=O)c2c(O)c1OC [Sample F-4, 4′,5,-dihydroxy-3,6,7-trimethoxy-flavone]
result: >20.0

compound: COc1c(OC)c(O)c2c(=O)c(OC)c(-c3ccc(O)cc3)oc2c1OC
result: >14.7

compound: COc1ccc(-c2oc3cc(OC)c(OC)c(O)c3c(=O)c2OC)cc1O
result: >16.7

compound: O=c1c(O)c(-c2ccc(O)cc2)oc2cc(O)cc(O)c12
result: >5.2

compound: COc1ccc(-c2oc3cc(OC)cc(O)c3c(=O)c2O)cc1 [Sample F-8, 3,5-dihydroxy-7,4′-dimethoxyflavone]
result: >4.2

compound: O=c1cc(-c2ccccc2)oc2cccc(O)c12 [Sample F-17, 5-monohydroxy-flavone]
result: >17.9

----------
Tested on: larval settlement of the barnacle Balanus amphitrite
Experiment: Bioassay for antifouling activity against larval settlement (cyprids, 24-well plate, 24 h)
Details: Amphibalanus amphitrite, Table 2; larval settlement of Balanus amphitrite; mean ± standard deviation of at least three replicates
measured metric: log10(EC50) (log10 of the value in µg/mL)

molecule: COc1ccc(-c2oc3cc(OC)cc(O)c3c(=O)c2O)cc1 [Sample F-8, 3,5-dihydroxy-7,4′-dimethoxyflavone]
log10(EC50): 1.07
--
molecule: COc1ccc(-c2oc3cc(OC)c(OC)c(O)c3c(=O)c2OC)cc1O [Sample F-3]
log10(EC50): 0.48
--
molecule: COc1cc2oc(-c3ccc(O)cc3)c(OC)c(=O)c2c(O)c1OC [Sample F-4, 4′,5,-dihydroxy-3,6,7-trimethoxy-flavone]
log10(EC50): 0.40
--
molecule: COc1ccc(-c2coc3c(OC)c(O)ccc3c2=O)cc1 [Sample F-2, 7-hydroxy-8,4′-dimethoxyisoflavone]
log10(EC50): 1.12
--
molecule: O=c1cc(-c2ccc(O)c(O)c2)oc2cc(O)cc(O)c12 [Sample F-10]
log10(EC50): 0.58
--
molecule: O=c1c(O)c(-c2ccc(O)cc2)oc2cc(O)cc(O)c12 [Sample F-6, kaempferol]
log10(EC50): 0.98
--
molecule: COc1c(OC)c(O)c2c(=O)c(OC)c(-c3ccc(O)cc3)oc2c1OC [Sample F-1]
log10(EC50): 0.53
--
molecule: O=c1cc(-c2ccc(O)cc2)oc2cc(O)cc(O)c12 [Sample F-9, 4′,5,7-trihydroxy-flavone]
log10(EC50): 0.49
--
molecule: O=c1c(-c2ccc(O)cc2)coc2cc(O)cc(O)c12 [Sample F-12, 4′,5,7-trihydroxy-isoflavone]
log10(EC50): 0.48
--
molecule: COc1ccc(-c2oc3c(CC=C(C)C)c(O[C@@H]4O[C@H](CO)[C@@H](O)[C@H](O)[C@H]4O)cc(O)c3c(=O)c2O[C@@H]2O[C@@H](C)[C@H](O)[C@@H](O)[C@H]2O)cc1 [Sample F-16, icariin]
log10(EC50): 1.55
--
molecule: O=c1cc(-c2ccccc2)oc2cccc(O)c12 [Sample F-17, 5-monohydroxy-flavone]
log10(EC50): 0.45
